Kindly state GI50 for each of the entries shown.
# Test system: A549
# METHOD_NOTES: NCI tumour cell line growth inhibition, 48 h
The source made the active and inactive calls. Rule as the data show it: active = GI50 up to about 1.1 µM and inactive = higher.

Lookup result for COC(=O)c1csc(-c2nc(CCNC(=O)OC(C)(C)C)sc2Br)n1 ; measured GI50: > 100 µM (inactive)

GI50 measured on CCOP(=O)(OCC)Oc1c(OC)c2[nH]c(C(=O)OC)cc2c2c(C(=O)O)c[nH]c12 = > 100 µM (inactive)

GI50 recorded for this compound, C/C=C\C(CC(=O)O)CC(=O)NCCC1CN(S(=O)(=O)C(F)(F)F)c2ccccc21 (stereo unspecified) , is > 100 µM (inactive)

GI50 measured on N#Cc1nnn(C2CCCCC2)c1O = > 100 µM (inactive)

GET /value?item= O=C(O)CCC(NC(=O)c1ccc(CNc2nc3ccccc3nc2C(=O)O)cc1)C(=O)O (stereo unspecified) &field=GI50 returns > 100 µM (inactive)

// O=C1Nc2ccccc2/C1=N/Nc1ccccc1[N+](=O)[O-] : GI50 value = 34.4 µM (inactive)

The recorded GI50 for CC(C)=CCC[C@@H](C)C1=C(O)C(=O)C(C)=C(c2c(I)c(=O)n(C)c(=O)n2C)C1=O is 61 µM (inactive)

get_value(item= COC(=O)CCC(=O)Nc1cc(C)ccc1C , readout=GI50) returns > 100 µM (inactive)

// GI50 value for O=c1c2cc(-c3ccccc3)cnc2sn1-c1ccc(Oc2ccccc2)cc1 : 19.5 µM (inactive)

GI50 recorded for this compound, O=c1[nH]c(=O)n(C2CC(O)C(CS)O2)cc1F (stereo unspecified) , is 23.6 µM (inactive)

GET /value?item= O=C1C=CC2OC(c3ccccc3)C(O)C2O1 (stereo unspecified) &field=GI50 returns 5.74 µM (inactive)
